Cited source: patent US20260167632A1

# assay_target: UniProt:Q9HB14
# Sequence (Q9HB14 1-408): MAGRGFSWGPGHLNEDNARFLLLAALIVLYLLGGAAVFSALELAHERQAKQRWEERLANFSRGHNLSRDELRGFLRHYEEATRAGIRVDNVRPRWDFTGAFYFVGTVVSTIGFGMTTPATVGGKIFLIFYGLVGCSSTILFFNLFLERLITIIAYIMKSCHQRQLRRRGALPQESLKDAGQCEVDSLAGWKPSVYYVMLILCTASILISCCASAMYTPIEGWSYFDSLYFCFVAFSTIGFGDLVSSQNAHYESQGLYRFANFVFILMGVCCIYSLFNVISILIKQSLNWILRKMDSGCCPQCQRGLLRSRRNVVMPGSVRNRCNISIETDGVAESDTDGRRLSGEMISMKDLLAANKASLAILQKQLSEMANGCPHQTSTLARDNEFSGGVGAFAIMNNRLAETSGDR
# test: KCNK13 antagonist activity, thallium flux FLIPR assay in HEK 293 cells stably expressing human KCNK13
# experimental_setup: HEK 293 cells stably expressing human KCNK13, Tl+ sensitive dye, compound 15 min before thallium sulfate, ten point curves; read-out: hKCNK13 IC50
The reader will find reported IC50 values listed item by item below.
property_name: IC50

{"molecule": "CC(c1cccc(F)c1)N(C)C(=O)c1cc(Cl)cnc1OC(F)F (single isomer, unassigned) [Example 86]", "result": "≤ 100 nM"}
{"molecule": "COc1ncc(Cl)cc1C(=O)N(C)C1COc2ccccc21 (single isomer, unassigned) [Example 27]", "result": "≤ 500 nM"}
{"molecule": "COc1ncc(Cl)cc1C(=O)N(C)C(C)c1cc(F)ccc1C#N (single isomer, unassigned) [Example 59]", "result": "≤ 500 nM"}
{"molecule": "CN(C(=O)c1cc(Cl)cnc1OC(F)F)C1COc2c(F)cccc21 (centres unmarked)", "result": "≤ 500 nM"}
{"molecule": "CCOc1ncc(Cl)cc1C(=O)N(C)C1CCc2ccccc21 (single isomer, unassigned) [Example 12]", "result": "≤ 1000 nM"}
{"molecule": "COc1ncc(Cl)cc1C(=O)N(C)Cc1c(Cl)cccc1Cl", "result": "≤ 200 nM"}
{"molecule": "COc1ncccc1C(=O)N(C)Cc1cccc(F)c1", "result": "≤ 1000 nM"}
{"molecule": "COc1ncc(F)cc1C(=O)N(C)C(C)c1cccc(F)c1 (single isomer, unassigned) [Example 7]", "result": "≤ 200 nM"}
